Assay: logP determination by HPLC (formic acid method)
Type: physicochemical
Conditions: reversed-phase HPLC column (C18), pH 3.4, HPLC on reversed-phase column (C18), acidic range (pH 3.4), 55° C.; read-out: logP (HCOOH)
For each of the compounds below, state its chromatographic logP.
Output spec: single numeric token, no unit.

Input Cc1nc(-c2cccnc2)sc1-c1cccc(C2OCCO2)c1 [compound 25] . Output chromatographic logP: 2.39

c1cncc(-c2ncc(-c3cccc(-n4cccn4)n3)s2)c1 [compound 187] has a reported chromatographic logP of 2.53

Field chromatographic logP (entry Clc1ccc(-c2cnc(-c3cccnc3)s2)cc1 [compound 13] ) reads 3.23

Entry CNc1nccc(-c2sc(-c3cccnc3)nc2C)n1 [compound 193] ; chromatographic logP = 1.41

Lab note: measured chromatographic logP of CC(F)(F)c1cccc(-c2cnc(-c3cccnc3)s2)n1 [compound 224] was 2.77

Reported chromatographic logP ( Cc1nc(-c2cccnc2)sc1-c1nc(-c2nc(C)c(C)c(C)n2)no1 [compound 73] ) = 2.34

Lookup result for Cc1nc(-c2cccnc2)sc1-c1ccn(C(=S)NC(C)c2ccccc2)n1 (centres unmarked) [compound 136] ; measured chromatographic logP: 4.41

For CSc1cnn(-c2sc(-c3cccnc3)nc2C)c1 [compound 33] the compound record lists chromatographic logP as 2.21

GET /value?item= c1cncc(-c2ncc(-c3cccc(-c4nc[nH]n4)n3)s2)c1 [compound 183] &field=chromatographic logP returns 1.24

Notebook: CC(F)(F)c1ccc(-c2cnc(-c3cccnc3)s2)nc1 [compound 223] , chromatographic logP read as 2.46

Record Cc1nc(-c2cccnc2)sc1-c1nc(C(=O)NCC(F)(F)C(F)F)cs1 [compound 235] , field chromatographic logP: 2.38

The compound identified as Cc1nc(-c2cccnc2)sc1-c1ccn(CC(F)(F)F)n1 [compound 23] registered its chromatographic logP at 2.2

So for Cc1nc(-c2cccnc2)sc1-c1ccn(C(=S)NC2CC2)n1 [compound 104] , the logged chromatographic logP turned out to be 3.23

chromatographic logP measured on Cc1nc(-c2cccnc2)sc1-c1ccn(-c2ncccc2[N+](=O)[O-])n1 [compound 77] = 2.5

###

Answer each item with its documented chromatographic logP.
Experiment: logP determination by HPLC (formic acid method)
Format: physicochemical
Conditions: reversed-phase HPLC column (C18), pH 3.4, values printed in the text of the preparation examples; formic acid method; read-out: logP (HCOOH)
Lab note: record just the number, no unit beside it.

Notebook: Cc1nc(-c2cccnc2)sc1C(=O)NN(CCO)c1ncccn1 , chromatographic logP read as 1.08

Just so you know, measured chromatographic logP for Cc1nc(-c2cccnc2)sc1-c1cccc(C#N)n1 came out at 2.11

Lab note: Cc1nc(-c2cccnc2)sc1C1=NN(c2ncccn2)CCO1 gave chromatographic logP of 1.56

The reported value for Cc1nc(-c2cccnc2)sc1-c1cccc(-c2nccnn2)n1 in terms of chromatographic logP is 1.58

Note to self: chromatographic logP recorded for c1cncc(-c2nccs2)c1 was 0.62

response.value for Cn1nc(-c2cccnc2)cc1-c1ccnc(-c2ncccn2)n1 (field: chromatographic logP) = 0.65

response.value for Cn1nc(-c2cccnc2)cc1-c1ccn(-c2ncccn2)n1 (field: chromatographic logP) = 1

Lab note: Cc1nc(-c2cccnc2)sc1C(=O)/C=C/N(C)C gave chromatographic logP of 1.35

chromatographic logP measured on Cc1nc(-c2cccnc2)sc1-c1cccc(Cl)n1 = 2.66

Input CC(=O)c1nnc(-c2cccnc2)s1 . Output chromatographic logP: 1.16

Record summary for c1cnc(-c2cccc(-c3cnc(-c4cccnc4)s3)n2)nc1 : reported chromatographic logP = 1.53

Sure, the documented chromatographic logP for CC(=O)c1cc(-c2cccnc2)nn1C is 0.61

// chromatographic logP lookup, compound = Cc1nc(-c2cccnc2)sc1-c1cccc(C2=NOCCO2)n1 , result: 1.81

Noted for Cc1nc(-c2cccnc2)sc1-c1ccnc(-c2ncccn2)n1 : its chromatographic logP reads 1.17
